# TEST TARGET: AKT1 (Homo sapiens, UniProt P31749)
# Sequence (P31749 whole entry): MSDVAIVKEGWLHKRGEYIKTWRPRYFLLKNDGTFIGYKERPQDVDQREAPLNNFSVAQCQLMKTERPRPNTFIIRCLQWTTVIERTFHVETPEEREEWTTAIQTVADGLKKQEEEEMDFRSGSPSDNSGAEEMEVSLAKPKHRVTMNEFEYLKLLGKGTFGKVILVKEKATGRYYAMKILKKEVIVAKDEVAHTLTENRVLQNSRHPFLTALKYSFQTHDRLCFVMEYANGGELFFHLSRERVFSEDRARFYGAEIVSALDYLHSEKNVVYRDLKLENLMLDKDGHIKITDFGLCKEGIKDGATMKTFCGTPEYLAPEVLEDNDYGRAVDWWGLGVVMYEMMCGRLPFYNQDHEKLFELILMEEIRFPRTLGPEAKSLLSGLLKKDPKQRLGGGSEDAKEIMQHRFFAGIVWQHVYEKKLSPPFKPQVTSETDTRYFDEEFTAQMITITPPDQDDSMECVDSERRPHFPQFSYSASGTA
# METHOD NOTES: AKT Kinase Assay (IMAP fluorescent polarisation) vs AKT1
# STATED CONDITIONS: activated AKT1, FAM Crosstide substrate
Structures can show the parent of a compound that is named as a salt.
Assign IC50 to each entry below.

Solved cases below.
COc1nccc2oc(-c3ccc(C4(N)CCC4)cc3)c(-c3ccccc3)c12 [Example 17] = 1 to 10 µM
Cn1c(N2CCCC2)nc2oc(-c3ccc(C4(N)CCC4)cc3)c(-c3ccccc3)c2c1=O [Example 58, hydrochloride] = 0.1 to 1 µM
NC1(c2ccc(-c3oc4ncn(CC(F)F)c(=O)c4c3-c3ccccc3)cc2)CCC1 [Example 108] = 1 to 10 µM
CCn1c(NCCO)nc2oc(-c3ccc(C4(N)CCC4)cc3)c(-c3ccccc3)c2c1=O [Example 93] = 1 to 10 µM
C#Cc1cnc2oc(-c3ccc(C4(N)CCC4)cc3)c(-c3ccccc3)c2n1 [Example 146] = 1 to 10 µM

Provide the reported IC50 of each entry below, same order.
1. C[C@H](O)CNc1nc2oc(-c3ccc(C4(N)CCC4)cc3)c(-c3ccccc3)c2c(=O)n1C [Example 86]
2. NC1(c2ccc(-c3oc4c(Br)cn(CCF)c(=O)c4c3-c3ccccc3)cc2)CCC1 [Example 112]
3. COc1ncnc2oc(-c3ccc(C4(N)CCC4)cc3)c(-c3ccccc3)c12 [Example 78]
4. COc1nccc2c(-c3ccccc3)c(-c3ccc(C4(N)CCC4)cc3)oc12 [Example 126]
5. COc1nc(OC)c2c(-c3ccccc3)c(-c3ccc(C4(N)CCC4)cc3)oc2n1 [Example 49]
6. NC1(c2ccc(-c3oc4ncc(Br)cc4c3-c3ccccc3)cc2)CCC1 [Example 11]
7. Cn1nccc1-c1cnc2oc(-c3ccc(C4(N)CCC4)cc3)c(-c3ccccc3)c2n1 [Example 137]

1: 0.1 to 1 µM; 2: 0.1 to 1 µM; 3: ≤ 0.1 µM; 4: 0.1 to 1 µM; 5: ≤ 0.1 µM; 6: > 10 µM; 7: 0.1 to 1 µM

Give IC50 for each of the items listed below.
1. COc1nc(N(C)C)nc2oc(-c3ccc(C4(N)CCC4)cc3)c(-c3ccccc3)c12 [Example 26]
2. CNc1nc2oc(-c3ccc(C4(N)CCC4)cc3)c(-c3ccccc3)c2c(=O)n1CCOC [Example 69, HCl]
3. Cn1c(=O)c2c(-c3ccccc3)c(-c3ccc(C4(N)CCC4)cc3)oc2n(C)c1=O [Example 125]
4. CN(C)c1nc(NCCO)nc2oc(-c3ccc(C4(N)CCC4)cc3)c(-c3ccccc3)c12 [Example 70, HCl]
5. NC1(c2ccc(-c3oc4ncc(-c5cncnc5)nc4c3-c3ccccc3)cc2)CCC1 [Example 140]
6. CSc1nc(C(F)(F)F)c2c(-c3ccccc3)c(-c3ccc(C4(N)CCC4)cc3)oc2n1 [Example 74, hydrochloride]

["0.1 to 1 µM", "1 to 10 µM", "0.1 to 1 µM", "1 to 10 µM", "1 to 10 µM", "1 to 10 µM"]

Return reported IC50 values for all items listed beneath this line.
1. CSc1nc(I)c2c(-c3ccccc3)c(-c3ccc(C4(N)CCC4)cc3)oc2n1 [Example 75]
2. COc1nc(N2CCN(CCN(C)C)CC2)nc2oc(-c3ccc(C4(N)CCC4)cc3)c(-c3ccccc3)c12 [Example 33]

1 to 10 µM
0.1 to 1 µM

====

# TEST TARGET: AKT3 (Homo sapiens)
# Construct: purchased SignalChem
# Sequence (Q9Y243 whole entry): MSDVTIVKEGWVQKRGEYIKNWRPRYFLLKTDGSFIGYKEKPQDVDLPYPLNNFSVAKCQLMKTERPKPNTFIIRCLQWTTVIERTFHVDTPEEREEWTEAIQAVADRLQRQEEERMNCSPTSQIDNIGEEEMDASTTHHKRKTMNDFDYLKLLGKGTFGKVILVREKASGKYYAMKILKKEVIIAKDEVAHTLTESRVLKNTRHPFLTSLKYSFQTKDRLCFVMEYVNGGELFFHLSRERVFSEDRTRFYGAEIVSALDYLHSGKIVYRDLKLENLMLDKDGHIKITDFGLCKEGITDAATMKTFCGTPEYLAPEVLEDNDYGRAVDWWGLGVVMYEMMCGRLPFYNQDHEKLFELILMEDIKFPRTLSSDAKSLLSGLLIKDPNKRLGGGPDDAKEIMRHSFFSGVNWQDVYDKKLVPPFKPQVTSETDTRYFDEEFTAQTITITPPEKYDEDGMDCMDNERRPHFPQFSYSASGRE
# METHOD NOTES: AKT Kinase Assay (IMAP fluorescent polarisation) vs AKT3
# Type: biochemical
# STATED CONDITIONS: activated AKT3, FAM Crosstide substrate
pIC50: −log10 of the molar value. Structures can show the parent of a compound that is named as a salt.
Could you please report measured pIC50 for the items listed next?

Sample answers from the record:
NC1(c2ccc(-c3oc4cc[nH]c(=O)c4c3-c3ccccc3)cc2)CCC1 [Example 18] = < 5.00
NC1(c2ccc(-c3oc4ncc(-c5cn[nH]c5)nc4c3-c3ccccc3)cc2)CCC1 [Example 135] = 6.00 to 7.00
CNc1ncc2c(-c3ccccc3)c(-c3ccc(C4(N)CCC4)cc3)oc2n1 [Example 55] = < 5.00
CSc1cnc2c(-c3ccccc3)c(-c3ccc(C4(N)CCC4)cc3)[nH]c2n1 [Example 153] = < 5.00
CCNc1nc2oc(-c3ccc(C4(N)CCC4)cc3)c(-c3ccccc3)c2c(=O)n1C [Example 88, HCl] = 5.00 to 6.00
NC1(c2ccc(-c3sc4nc[nH]c(=O)c4c3-c3ccccc3)cc2)CCC1 [Example 16] = 5.00 to 6.00
Cn1c(N2CCNC(=O)C2)nc2oc(-c3ccc(C4(N)CCC4)cc3)c(-c3ccccc3)c2c1=O [Example 99] = 5.00 to 6.00
COC(=O)c1cn(C)c(=O)c2c(-c3ccccc3)c(-c3ccc(C4(N)CCC4)cc3)oc12 [Example 118] = 5.00 to 6.00

Can you give me pIC50 for all of these, one by one?
1. NC1(c2ccc(-c3oc4ncn(CC5CC5)c(=O)c4c3-c3ccccc3)cc2)CCC1 [Example 100, HCl]
2. NC1(c2ccc(-c3oc4c(=O)n(CCCO)ccc4c3-c3ccccc3)cc2)CCC1 [Example 131]
3. NC(=O)c1cccc(-c2cnc3oc(-c4ccc(C5(N)CCC5)cc4)c(-c4ccccc4)c3n2)c1 [Example 152, HCl]
4. CNc1nc(SC)nc2oc(-c3ccc(C4(N)CCC4)cc3)c(-c3ccccc3)c12 [Example 68, HCl]
5. NC(=O)c1ccc2oc(-c3ccc(C4(N)CCC4)cc3)c(-c3ccccc3)c2c1 [Example 7]

1: 5.00 to 6.00; 2: 5.00 to 6.00; 3: < 5.00; 4: 6.00 to 7.00; 5: < 5.00

====

# TEST TARGET: AKT2 (Homo sapiens)
# Sequence (P31751 whole entry): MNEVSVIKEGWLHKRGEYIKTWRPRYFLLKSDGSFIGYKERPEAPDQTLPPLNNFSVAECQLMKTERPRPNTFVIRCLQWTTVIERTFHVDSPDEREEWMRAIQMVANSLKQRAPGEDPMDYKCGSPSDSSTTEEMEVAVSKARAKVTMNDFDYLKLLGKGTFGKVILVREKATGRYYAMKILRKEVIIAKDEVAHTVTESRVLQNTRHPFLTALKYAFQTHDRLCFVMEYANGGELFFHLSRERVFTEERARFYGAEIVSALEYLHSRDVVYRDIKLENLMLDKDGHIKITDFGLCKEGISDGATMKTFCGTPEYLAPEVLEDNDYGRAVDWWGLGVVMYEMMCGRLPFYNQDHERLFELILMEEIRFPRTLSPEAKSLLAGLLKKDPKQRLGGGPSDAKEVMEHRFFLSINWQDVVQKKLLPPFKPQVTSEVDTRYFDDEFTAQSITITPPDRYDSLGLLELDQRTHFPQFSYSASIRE
# METHOD NOTES: AKT Kinase Assay (IMAP fluorescent polarisation) vs AKT2
# STATED CONDITIONS: activated AKT2, FAM Crosstide substrate
Counter-ions that a name gives are not always drawn.
ASSAY READOUT: IC50

Example results:
NC1(c2ccc(-c3oc4nc(NCCO)nc(OCCF)c4c3-c3ccccc3)cc2)CCC1 = 100 to 1000 nM
NC1(c2ccc(-c3oc4nc(NCCO)n(CCF)c(=O)c4c3-c3ccccc3)cc2)CCC1 = ≤ 100 nM
COc1nc(NCCO)nc2oc(-c3ccc(C4(N)CCC4)cc3)c(-c3ccccc3)c12 = 100 to 1000 nM
Cc1cnc2oc(-c3ccc(C4(N)CCC4)cc3)c(-c3ccccc3)c2n1 = 1000 to 10000 nM

Kindly give each listed record's IC50.
1. NC1(c2ccc(-c3oc4nc(NCCO)n(CC5CC5)c(=O)c4c3-c3ccccc3)cc2)CCC1
2. NC(=O)c1ccc2oc(-c3ccc(C4(N)CCC4)cc3)c(-c3ccccc3)c2c1
3. NC1(c2ccc(-c3oc4ncc(CO)nc4c3-c3ccccc3)cc2)CCC1
4. NC1(c2ccc(-c3oc4nc(NCCO)n(CC(F)(F)F)c(=O)c4c3-c3ccccc3)cc2)CCC1
5. Cn1cc(C(=O)NCCO)c2oc(-c3ccc(C4(N)CCC4)cc3)c(-c3ccccc3)c2c1=O

1: ≤ 100 nM; 2: 100 to 1000 nM; 3: 1000 to 10000 nM; 4: ≤ 100 nM; 5: 100 to 1000 nM

Could I get IC50 for every one of these entries?
1. COc1ncnc2oc(-c3ccc(C4(N)CCC4)cc3)c(-c3ccccc3)c12
2. N#Cc1ccc2oc(-c3ccc(C4(N)CCC4)cc3)c(-c3ccccc3)c2c1
3. COC(=O)c1cn(C)c(=O)c2c(-c3ccccc3)c(-c3ccc(C4(N)CCC4)cc3)oc12
4. NC1(c2ccc(-c3oc4cc[nH]c(=O)c4c3-c3ccccc3)cc2)CCC1
5. Cc1nc2oc(-c3ccc(C4(N)CCC4)cc3)c(-c3ccccc3)c2c(=O)n1CC(F)(F)F
6. CSc1nc2oc(-c3ccc(C4(N)CCC4)cc3)c(-c3ccccc3)c2c(=O)n1CC#N
7. Cn1c(N2CC[C@H](O)C2)nc2oc(-c3ccc(C4(N)CCC4)cc3)c(-c3ccccc3)c2c1=O
8. C[C@@H](O)CNc1nc2oc(-c3ccc(C4(N)CCC4)cc3)c(-c3ccccc3)c2c(=O)n1C

1: 100 to 1000 nM; 2: 1000 to 10000 nM; 3: 100 to 1000 nM; 4: 1000 to 10000 nM; 5: ≤ 100 nM; 6: ≤ 100 nM; 7: ≤ 100 nM; 8: 100 to 1000 nM

Give IC50 for each listed item.
1. NC1(c2ccc(-c3oc4nc[nH]c(=O)c4c3-c3ccccc3)cc2)CCC1
2. CCn1c(NC)nc2oc(-c3ccc(C4(N)CCC4)cc3)c(-c3ccccc3)c2c1=O
3. CN(C)c1nc(NCCO)nc2oc(-c3ccc(C4(N)CCC4)cc3)c(-c3ccccc3)c12 [Example 70, HCl]
4. CNc1ncc2c(-c3ccccc3)c(-c3ccc(C4(N)CCC4)cc3)oc2n1
5. N#Cc1ccc2c(-c3ccccc3)c(-c3ccc(C4(N)CCC4)cc3)oc2c1
6. NC1(c2ccc(-c3sc4nc[nH]c(=O)c4c3-c3ccccc3)cc2)CCC1
7. CSc1nc2oc(-c3ccc(C4(N)CCC4)cc3)c(-c3ccccc3)c2c(=O)n1CC(N)=O

1. 1000 to 10000 nM
2. ≤ 100 nM
3. 1000 to 10000 nM
4. 100 to 1000 nM
5. 1000 to 10000 nM
6. 100 to 1000 nM
7. 100 to 1000 nM
